Provide the recorded inhibition at 100 µM for the entries that follow.
- test.target: AChE (Homo sapiens, UniProt P22303)
- Sequence (P22303 32-614): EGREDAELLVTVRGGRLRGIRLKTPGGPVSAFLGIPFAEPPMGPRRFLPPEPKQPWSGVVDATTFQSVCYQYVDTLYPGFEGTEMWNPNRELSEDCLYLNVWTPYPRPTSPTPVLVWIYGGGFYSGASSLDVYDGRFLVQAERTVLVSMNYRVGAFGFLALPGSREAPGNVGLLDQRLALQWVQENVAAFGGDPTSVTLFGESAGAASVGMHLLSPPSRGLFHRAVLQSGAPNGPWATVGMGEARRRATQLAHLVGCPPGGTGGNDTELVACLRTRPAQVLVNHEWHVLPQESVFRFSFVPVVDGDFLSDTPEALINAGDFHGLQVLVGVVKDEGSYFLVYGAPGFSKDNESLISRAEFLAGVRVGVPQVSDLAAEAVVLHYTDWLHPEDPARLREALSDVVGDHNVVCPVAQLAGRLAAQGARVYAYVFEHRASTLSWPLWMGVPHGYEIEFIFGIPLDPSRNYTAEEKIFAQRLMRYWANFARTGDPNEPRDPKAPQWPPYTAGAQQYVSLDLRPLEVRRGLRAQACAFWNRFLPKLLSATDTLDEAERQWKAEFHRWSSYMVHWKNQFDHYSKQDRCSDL
- protocol.summary: biochemical
- run.parameters: 10^−4 M

smiles.data	test.target	result.value
Cc1ccc(-c2csc(NN=Cc3ccc(N4CCN(c5ccc(F)cc5)CC4)cc3)n2)cc1	AChE (Homo sapiens, UniProt P22303)	45.9%

Provide the reported inhibition at 100 µM of each entry below, same order.
1. Fc1ccc(N2CCN(c3ccc(C=NNc4nc(-c5ccc(C(F)(F)F)cc5)cs4)cc3)CC2)cc1
2. Fc1ccc(N2CCN(c3ccc(C=NNc4nc(-c5ccc(Br)cc5)cs4)cc3)CC2)cc1

A:
1. > 50%
2. 47.1%

Provide inhibition at 100 µM values for the following items, in order.
1. N#Cc1ccc(-c2csc(NN=Cc3ccc(N4CCN(c5ccc(F)cc5)CC4)cc3)n2)cc1
2. Fc1ccc(N2CCN(c3ccc(C=NNc4nc(-c5ccc(Cl)cc5Cl)cs4)cc3)CC2)cc1
3. O=[N+]([O-])c1ccc(-c2csc(NN=Cc3ccc(N4CCN(c5ccc(F)cc5)CC4)cc3)n2)cc1
4. Fc1ccc(N2CCN(c3ccc(C=NNc4nc(-c5ccc(Cl)cc5)cs4)cc3)CC2)cc1

A:
1: 42.3%; 2: 20.4%; 3: 38.5%; 4: 37.8%

Quick one: give me inhibition at 100 µM for each item below, same order please.
1. Cc1ccc(-c2csc(NN=Cc3ccc(N4CCN(c5ccc(F)cc5)CC4)cc3)n2)c(C)c1
2. Fc1ccc(-c2csc(NN=Cc3ccc(N4CCN(c5ccc(F)cc5)CC4)cc3)n2)cc1

A:
26.9%
48.1%
